Test system: MT4-LTR-Luc cells
assay.method.text: Counterscreen MT4-LTR-Luc
Format: cell-based
reported.conditions: MT4 T-cell line with long terminal repeat-Luc reporter
measurement.kind: CC50

COC(=O)N[C@H](C(=O)N1CCCC1c1cc(=O)c2ccc(-c3ccc(-c4ccc(-c5cnc([C@@H]6CCCN6C(=O)[C@@H](NC(=O)OC)C(C)C)[nH]5)cc4)cc3)cc2[nH]1)C(C)C (single isomer, unassigned) [Compound 3b]    > 984 nM
COC(=O)N[C@H](C(=O)N1CCCC1c1[nH]c2cc(-c3ccc(-c4ccc(-c5cnc([C@@H]6CCCN6C(=O)[C@@H](NC(=O)OC)C(C)C)[nH]5)cc4)cc3)ccc2c(=O)c1F)C(C)C (single isomer, unassigned) [Compound 18b]    > 984 nM

We now examine a further compound.
Query :: Quick one: CC50 for COC(=O)N[C@H](C(=O)N1CCCC1c1cc(=O)c2ccc(-c3ccc4c(c3)C(F)(F)c3cc(-c5c[nH]c([C@@H]6CCCN6C(=O)[C@@H](NC(=O)OC)C(C)C)n5)ccc3-4)cc2[nH]1)C(C)C (single isomer, unassigned) [Compound 5b] ?
Result :: > 984 nM

###

System: HCV replicon type 1b in Huh-Luc cells
assay.method.text: HCV replicon assay, stable transfection (Huh-7 luc/neo, luciferase readout)
Assay type: cell-based, HCV type 1b
reported.conditions: stably transfected Huh-Luc cells, genotype 1b, three days incubation, average where tested more than once, read-out: HCV-REP-HUH7LUC_EC50
measurement.kind: EC50 (nM)
One number for each entry, in nM.

COC(=O)N[C@H](C(=O)N1CCCC1c1cc(=O)c2ccc(-c3ccc(-c4ccc(-c5cnc([C@@H]6CCCN6C(=O)[C@@H](NC(=O)OC)C(C)C)[nH]5)cc4)cc3)cc2[nH]1)C(C)C (single isomer, unassigned) [Compound 3a]    0.021
COC(=O)N[C@H](C(=O)N1CCCC1c1[nH]c2cc(-c3ccc(-c4ccc(-c5cnc([C@@H]6CCCN6C(=O)[C@@H](NC(=O)OC)C(C)C)[nH]5)cc4)cc3)ccc2c(=O)c1F)C(C)C (single isomer, unassigned) [Compound 18a]    0.03
COC(=O)N[C@H](C(=O)N1CCCC1c1cc(=O)c2ccc(-c3ccc(-c4ccc(-c5cnc([C@@H]6CCCN6C(=O)[C@@H](NC(=O)OC)C(C)C)[nH]5)cc4)cc3)cc2[nH]1)C(C)C (single isomer, unassigned) [Compound 3b]    1.13

We now examine a further compound.
Query :: Notebook entry, HCV replicon type 1b in Huh-Luc cells assay: EC50 of COC(=O)N[C@H](C(=O)N1CCCC1c1[nH]c2cc(-c3ccc(-c4ccc(-c5cnc([C@@H]6CCCN6C(=O)[C@@H](NC(=O)OC)C(C)C)[nH]5)cc4)cc3)ccc2c(=O)c1F)C(C)C (single isomer, unassigned) [Compound 18b] = ?
Result :: 4.4

###

System: HCV subgenomic replicon genotype 1b Con1 in Huh-7 lunet cells
assay.method.text: HCV replicon assay, transient transfection, genotype 1b Con1
Format: cell-based, HCV genotype 1b Con1
reported.conditions: Hepatitis C virus, Huh-7, 48 h, transiently transfected Huh-7 lunet, genotype 1b Con1, two days incubation, luciferase
I'd appreciate it if you could supply pEC50 values for the items below.
Give bare numbers, as −log10 of the molar value.

Worked examples follow.
COC(=O)N[C@H](C(=O)N1CCC[C@H]1c1cc(=O)c2cc(F)c(-c3ccc(-c4ccc(-c5cnc([C@@H]6CCCN6C(=O)[C@@H](NC(=O)OC)C(C)C)[nH]5)cc4)cc3)cc2[nH]1)C(C)C [Compound 7]    10.68
COC(=O)N[C@H](C(=O)N1CCC[C@H]1c1ncc(-c2ccc3c(c2)C(F)(F)c2cc(-c4ccc5c(=O)cc([C@@H]6C[C@@H]7CCCC[C@@H]7N6C(=O)[C@@H](NC(=O)OC)C(C)C)[nH]c5c4)ccc2-3)[nH]1)C(C)C [Compound 6]    10.89
COC(=O)N[C@H](C(=O)N1CC2(C[C@H]1c1ncc(-c3ccc4c(c3)C(F)(F)c3cc(-c5ccc6c(=O)[nH]c([C@@H]7C[C@@H]8CCCC[C@@H]8N7C(=O)[C@@H](NC(=O)OC)C(C)C)nc6c5)ccc3-4)[nH]1)OCCO2)C(C)C [Compound 23]    11.30
COC(=O)N[C@H](C(=O)N1CCC[C@H]1C1=NS(=O)(=O)c2ccc(-c3ccc(-c4ccc(-c5c[nH]c([C@@H]6CCCN6C(=O)[C@@H](NC(=O)OC)C(C)C)n5)cc4)cc3)cc2N1)C(C)C [Compound 22]    10.92
COC(=O)N[C@H](C(=O)N1CCC[C@H]1c1nc(-c2ccc(-c3ccc(-c4ccc5c(=O)nc([C@@H]6CCCN6C(=O)[C@@H](NC(=O)OC)C(C)C)[nH]c5c4)cc3)cc2)c[nH]1)C(C)C [Compound 11]    10.60

Required: pEC50, one value per molecule below.
1. COC(=O)N[C@H](C(=O)N1CCC[C@H]1c1ncc(-c2ccc3c(c2)C(F)(F)c2cc(-c4ccc5c(=O)[nH]c([C@@H]6CCCN6C(=O)[C@@H](NC(=O)OC)C(C)C)nc5c4)ccc2-3)[nH]1)C(C)C [Compound 12]
2. COC(=O)N[C@H](C(=O)N1CCC[C@H]1c1ncc(-c2ccc3c(c2)C(F)(F)c2cc(-c4ccc5c(=O)cc([C@@H]6[C@H]7CC[C@H](C7)N6C(=O)[C@@H](NC(=O)OC)C(C)C)[nH]c5c4)ccc2-3)[nH]1)C(C)C [Compound 8]
3. COC(=O)N[C@H](C(=O)N1CCC[C@H]1C1=NS(=O)(=O)c2ccc(-c3ccc4c(c3)C(F)(F)c3cc(-c5cnc([C@@H]6CCCN6C(=O)[C@@H](NC(=O)OC)C(C)C)[nH]5)ccc3-4)cc2N1)C(C)C [Compound 14]
4. COC(=O)N[C@H](C(=O)N1CCC[C@H]1C1=NC2(COC2)c2ccc(-c3ccc4c(c3)C(F)(F)c3cc(-c5cnc([C@@H]6CCCN6C(=O)[C@@H](NC(=O)OC)C(C)C)[nH]5)ccc3-4)cc2N1)C(C)C [Compound 16]

Result ::
1: 11.30; 2: 11.30; 3: 10.77; 4: 10.48
